Plant response rating, Crabgrass, Large by entry:
Tested on: large crabgrass (Digitaria sanguinalis)
test: Test A pre-/postemergence plant response
Type: in vivo
testConditions: Postemergence, 500 g ai/ha; 0 to 100 scale, 0 no effect, 100 complete control
observationType: Plant response rating, Crabgrass, Large

compound="CSc1cc(-c2ccc(F)cc2)nn1-c1c(O)cnn(C)c1=O [Compound 23]" observationtype="Plant response rating, Crabgrass, Large" valuereported=20
compound="Cc1nc(-c2ccc(Cl)cc2)nn1-c1c(O)cnn(C)c1=O [Compound 17]" observationtype="Plant response rating, Crabgrass, Large" valuereported=80
compound="Cc1cc(-c2ccc(Br)cc2)nn1-c1c(OC(=O)C2CC2)cnn(C)c1=O [Compound 5]" observationtype="Plant response rating, Crabgrass, Large" valuereported=100
compound="Cc1cc(-c2ccc(C(F)(F)F)cc2)nn1-c1c(O)c(C(C)C)nn(C)c1=O [Compound 27]" observationtype="Plant response rating, Crabgrass, Large" valuereported=80

----------
System: velvetleaf (Abutilon theophrasti)
test: Test B pre-/postemergence plant response
Type: in vivo
testConditions: Preemergence, 31 g ai/ha; scale 0 to 100 (0 no effect, 100 complete control)
Plant response rating, Velvetleaf by entry:
observationType: Plant response rating, Velvetleaf

smilesstring=CCc1cc(-c2ccc(Br)cc2)nn1-c1c(O)c(C)nn(C)c1=O observationtype="Plant response rating, Velvetleaf" valuereported=0
smilesstring=Cc1cc(-c2ccc(Cl)cc2)nn1-c1c(OC(=O)c2cccs2)cnn(C)c1=O observationtype="Plant response rating, Velvetleaf" valuereported=0
smilesstring=CCCc1cc(-c2ccc(Cl)cc2)nn1-c1c(O)cnn(C)c1=O observationtype="Plant response rating, Velvetleaf" valuereported=0
smilesstring=COc1nn(C)c(=O)c(-n2nc(-c3ccc(Br)cc3)cc2C)c1O observationtype="Plant response rating, Velvetleaf" valuereported=45
smilesstring=Cc1cc(-c2ccc(Cl)cc2)nn1-c1c(OS(=O)(=O)c2cccc3ccccc23)cnn(C)c1=O observationtype="Plant response rating, Velvetleaf" valuereported=0
smilesstring=Cc1cc(-c2ccc(Cl)cc2)nn1-c1c(OS(=O)(=O)c2ccc(Cl)s2)cnn(C)c1=O observationtype="Plant response rating, Velvetleaf" valuereported=0

----------
Plant response rating, Sedge, Umbrella by entry:
System: umbrella sedge (Cyperus difformis)
test: Test B flooded paddy test plant response
Assay type: in vivo
testConditions: Flood, 31 g ai/ha; scale 0 to 100
observationType: Plant response rating, Sedge, Umbrella

compound="CCCc1cc(-c2ccc(Cl)cc2)nn1-c1c(O)cnn(C)c1=O [Compound 43]" observationtype="Plant response rating, Sedge, Umbrella" valuereported=0
compound="CCc1cc(-c2ccc(Cl)c(Cl)c2)nn1-c1c(OC(=O)OC(C)C)cnn(C)c1=O [Compound 22]" observationtype="Plant response rating, Sedge, Umbrella" valuereported=0
compound="Cc1cc(-c2ccc(Cl)cc2)nn1-c1c(OS(=O)(=O)c2ccccc2)cnn(C)c1=O [Compound 35]" observationtype="Plant response rating, Sedge, Umbrella" valuereported=0
compound="Cc1ccc(-c2ccc(Cl)cc2)cc1-c1c(O)cnn(C)c1=O [Compound 46]" observationtype="Plant response rating, Sedge, Umbrella" valuereported=40

----------
Tested on: blackgrass (Alopecurus myosuroides)
test: Test B pre-/postemergence plant response
Format: in vivo
testConditions: Preemergence, 31 g ai/ha; 0 to 100 scale, 0 no effect, 100 complete control
Plant response rating, Blackgrass by entry:
observationType: Plant response rating, Blackgrass

smilesstring=Cc1cc(-c2ccc(Br)cc2)nn1-c1c(OC(=O)C2CC2)cnn(C)c1=O experimentaltarget="blackgrass (Alopecurus myosuroides)" observationtype="Plant response rating, Blackgrass" valuereported=100
smilesstring=CCc1cc(-c2ccc(C(F)(F)F)cc2)nn1-c1c(O)c(C)nn(C)c1=O experimentaltarget="blackgrass (Alopecurus myosuroides)" observationtype="Plant response rating, Blackgrass" valuereported=100
smilesstring=Cc1cc(-c2ccc(Cl)cc2)nn1-c1c(OC(=O)c2cccc(Cl)c2)cnn(C)c1=O experimentaltarget="blackgrass (Alopecurus myosuroides)" observationtype="Plant response rating, Blackgrass" valuereported=95
smilesstring=Cc1nn(C)c(=O)c(-n2nc(-c3ccc(Cl)cc3)cc2C)c1O experimentaltarget="blackgrass (Alopecurus myosuroides)" observationtype="Plant response rating, Blackgrass" valuereported=100
smilesstring=Cc1cc(-c2ccc(Cl)cc2)nn1-c1c(OS(=O)(=O)c2ccc(Cl)s2)cnn(C)c1=O experimentaltarget="blackgrass (Alopecurus myosuroides)" observationtype="Plant response rating, Blackgrass" valuereported=100
smilesstring=CCc1cc(-c2ccc(C(F)(F)F)cc2)nn1-c1c(OC(=O)OC(C)C)cnn(C)c1=O experimentaltarget="blackgrass (Alopecurus myosuroides)" observationtype="Plant response rating, Blackgrass" valuereported=100
smilesstring=Cn1ncc(O)c(-n2nc(-c3ccc(Cl)cc3)cc2C2CC2)c1=O experimentaltarget="blackgrass (Alopecurus myosuroides)" observationtype="Plant response rating, Blackgrass" valuereported=100
smilesstring=Cc1cc(-c2ccc(C(F)(F)F)cc2)nn1-c1c(O)c(C(C)C)nn(C)c1=O experimentaltarget="blackgrass (Alopecurus myosuroides)" observationtype="Plant response rating, Blackgrass" valuereported=50
smilesstring=Cc1cc(-c2ccc(Cl)cc2)nn1-c1c(OC(=O)c2cccs2)cnn(C)c1=O experimentaltarget="blackgrass (Alopecurus myosuroides)" observationtype="Plant response rating, Blackgrass" valuereported=100
smilesstring=Cc1cc(-c2ccc(Cl)cc2)nn1-c1c(OS(=O)(=O)C(C)C)cnn(C)c1=O experimentaltarget="blackgrass (Alopecurus myosuroides)" observationtype="Plant response rating, Blackgrass" valuereported=60
